- procedureDetails: chemical genetic growth profiling, strain panel (AID 1159580);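 note: tested at 20 µM; growth read once vehicle control cultures reached saturation at 30 °C; 1 = growth at the plate median or of vehicle wells; lower values mean less growth of the strain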
- cond: S. cerevisiae deletion strains, growth OD, locus YJL154C, strain vps35, hits give low values
Out of some 5,500 compounds screened, about 2,000 (36%) were called active. Another 18% or so got no clear call; they are omitted. The list shows a part of the results.
metric: normalized growth
Give bare numbers.

• N[C@@H](C(=O)O)[C@@H](O)[C@H](O)[C@H](O)CO = 1.02
• CC(C)/C(O)=C1/C(=O)O[C@@H](c2ccoc2)[C@]2(C)C(O)[C@@H](O)[C@@]34OC5(C)OC67CC(C)(C(O)[C@]6(O)[C@@H](O)[C@]3(O5)C12)[C@H](CC(=O)O)[C@]74C (some centres undefined) = 0.98
• COc1ccc2c(c1)OCC(Cc1ccc(OC)c(O)c1)C2=O (centres undefined) = 0.964

Shifting focus to the compound that follows.
Notebook: NC(N)=NCCN1CCCCCCC1 , normalized growth read as 1.01
